- STUDY SYSTEM: Cytochrome P450 1A2 (Homo sapiens) (UniProt P05177)
- Sequence (P05177 whole entry, looked up): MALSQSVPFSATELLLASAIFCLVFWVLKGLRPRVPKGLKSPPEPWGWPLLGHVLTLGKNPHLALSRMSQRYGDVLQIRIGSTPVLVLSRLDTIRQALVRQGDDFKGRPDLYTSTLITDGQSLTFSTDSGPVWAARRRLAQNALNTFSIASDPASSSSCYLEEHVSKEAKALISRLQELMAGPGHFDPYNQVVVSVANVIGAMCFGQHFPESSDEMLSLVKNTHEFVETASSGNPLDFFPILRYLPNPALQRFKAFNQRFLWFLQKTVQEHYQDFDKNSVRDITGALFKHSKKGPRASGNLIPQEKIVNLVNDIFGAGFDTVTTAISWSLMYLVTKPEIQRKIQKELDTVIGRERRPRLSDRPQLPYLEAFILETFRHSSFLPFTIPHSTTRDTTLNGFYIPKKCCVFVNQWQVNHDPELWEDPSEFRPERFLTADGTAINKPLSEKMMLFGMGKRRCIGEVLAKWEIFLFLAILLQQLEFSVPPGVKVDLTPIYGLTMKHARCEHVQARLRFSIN
- ASSAY EXPLANATION: p450-cyp1a2 (AID 410); further: potency means the concentration at half of the fitted maximal effect
- CONDITION DETAILS: recombinant CYP1A2, luciferin-ME demethylation, luminescence; series mostly up to 25.6 µM
Records with an inconclusive call do not appear. Activity calls are given as the source filed them. The call rests on the fitted dose curve.

COMPOUND	Potency
CC(C)CC(=O)N[C@H](C(=O)N[C@H](C(=O)N[C@@H](CC(C)C)[C@H](O)CC(=O)N[C@@H](C)C(=O)N[C@@H](CC(C)C)[C@H](O)CC(=O)O)C(C)C)C(C)C	inactive
C[C@@H]1Cc2ccccc2N1NC(=O)c1ccc(Cl)c(S(N)=O)c1 (stereo partly specified)	inactive
O=C(NC[C@@H](O)CO)c1c(I)c(C(=O)NC[C@@H](O)CO)c(I)c(N(CCO)C(=O)CO)c1I	inactive
Clc1ccc(CC[C@H](Cn2ccnc2)Sc2c(Cl)cccc2Cl)cc1	3.98 µM (active)
CC(=O)C[C@H](c1ccc([N+](=O)[O-])cc1)c1c(O)c2ccccc2oc1=O	inactive
NS(=O)(=O)c1cc2c(cc1C(F)(F)F)N[C@H](Cc1ccccc1)NS2(=O)=O	15.8 µM (active)
Cc1nccn1C[C@@H]1CCc2c(c3ccccc3n2C)C1=O	3.98 µM (active)
C[C@@H]1C[C@@H]2[C@H]3CCC4=CC(=O)C=C[C@]4(C)[C@]3(F)[C@@H](O)C[C@]2(C)[C@@]1(O)C(=O)CO	inactive
C[C@H](Oc1ccccc1)C(=O)N[C@@H]1C(=O)N2[C@@H]1SC(C)(C)[C@@H]2C(=O)O	inactive
C[C@@H]1C[C@H](OC(=O)[C@@H](O)c2ccccc2)CC(C)(C)N1C	inactive
CCOC(=O)O[C@]1(C(=O)COC(=O)CC)CC[C@@H]2[C@@H]3CCC4=CC(=O)C=C[C@@]4(C)[C@H]3[C@H](O)C[C@]21C	inactive
CC(=O)[C@@H]1CC[C@@H]2[C@@H]3C[C@H](C)C4=CC(=O)CC[C@@]4(C)[C@H]3[C@H](O)C[C@]21C	inactive
C/C(=C(/CCO)SSC[C@@H]1CCCO1)N(C=O)Cc1cnc(C)nc1N	inactive
C[C@@H]1O[C@H](O[C@@H]2[C@@H](Oc3cc(O)c4c(c3)O[C@H](c3ccc(O)cc3)CC4=O)O[C@@H](CO)[C@@H](O)[C@H]2O)[C@@H](O)[C@H](O)[C@@H]1O	inactive
COc1cccc(-c2nc(NCCc3c[nH]c4ccc(OC)cc34)c3ccccc3n2)c1	1.58 µM (active)
CCC(=O)O[C@@]1(C(=O)CCl)[C@@H](C)C[C@@H]2[C@H]3CCC4=CC(=O)C=C[C@@]4(C)[C@]3(F)[C@@H](O)C[C@@]21C	inactive

---

- ASSAY EXPLANATION: qHTS Assay for Lipid Storage Modulators (AID 1519)
- CONDITION DETAILS: Drosophila S3 cells, BODIPY lipid droplet/cell ratio, laser cytometry; measured here: cell count channel max response; cells loaded with oleic acid
Records with an inconclusive call do not appear.

MOLECULE	max response [%]
CC(=O)O[C@@]1(C(C)=O)CCC2C3C=C(C)C4=CC(=O)CCC4(C)C3CCC21C (some centres undefined)	7.28
CCOC(=O)C(=O)C1(C(=O)OCC)Oc2cc(OC)cc(OC)c2C(=O)C1c1ccccc1 (centres undefined)	9.96
O=C1c2ccccc2C(=O)c2c(O)c(O)cc(O)c21	-4.21
C=C1CC23C[C@H]4[C@@H]5[C@@]6(C)C[C@H](OC(=O)c7ccccc7)[C@@H](OC(C)=O)[C@]57[C@@H]2[C@@H](OC(C)=O)[C@H]1[C@@H](O)[C@H]3[C@H]7N4C6	-3.09
CC[C@H](Cc1c(I)cc(I)c(N)c1I)C(=O)O	-5.23
COC(=O)CC1C(C)(C)C(=O)C2CC3=C4CC(=O)OC(c5ccoc5)[C@]4(C)CCC3[C@@]1(C)C2=O (some centres undefined)	14.1
O=C1O[C@@H]([C@@H](O)CO)[C@@H](O)[C@H]1O	8.38
CC(=O)Oc1cc2c(c(C)c1OC(C)=O)CC=C1[C@]3(C)CC[C@]4(C)CC[C@@](C)(C(=O)O)CC4[C@]3(C)CC[C@]12C (some centres undefined)	-7.33
Cc1c(O)cc(O)c2c(=O)c(-c3ccc(O)cc3)coc12	16.6

---

- ASSAY EXPLANATION: qHTS drug screen for cell cycle checkpoint inhibitors in PARPi-resistant BRCA-mutant ovarian cancer cell lines. (AID 1963452)
- CONDITION DETAILS: PEO1/OlaR viability, CellTiter-Glo luminescence, 96 h; measured here: PEO4 Z-AUC; stronger effect = lower value
PARAMETER MEASURED: Z-AUC

CPD SMILES	RECORDED NUMBER
Cc1ccc(C(=O)OCc2ccc([C@@H](CN)C(=O)Nc3ccc4cnccc4c3)cc2)c(C)c1	-0.26
CCc1cc(/C(C)=N/OCc2ccc(C3CCCCC3)c(C(F)(F)F)c2)ccc1CN1CC(C(=O)O)C1	0.118
C=CC(=O)Nc1cccc(Oc2nc(Nc3ccc(N4CCN(C)CC4)cc3)nc3ccsc23)c1	-0.146
N#Cc1ccc(Cn2cncc2CN2CCN(c3cccc(Cl)c3)C(=O)C2)cc1	-0.142
N#Cc1cccnc1N1CCN(C(=O)c2cccc(Cc3n[nH]c(=O)c4ccccc34)c2)CC1	-1.63

---

- STUDY SYSTEM: Glucocorticoid receptor (Homo sapiens)
- ASSAY EXPLANATION: GR-EFC Redistribution (AID 451); further: potency means the concentration at half of the fitted maximal effect
- CONDITION DETAILS: CHO-K1 GR-EFC translocation, beta-gal luminescence, 2 h
Active and inactive are the calls of the source. The call rests on the fitted dose curve.

CPD SMILES	STUDY SYSTEM	Potency
COc1ccc2c3c([nH]c2c1)[C@@H]1C[C@@H]2[C@@H](C[C@H](O)[C@H](OC)[C@H]2C(=O)O)CN1CC3	Glucocorticoid receptor (Homo sapiens)	> 20.6 µM (inactive)
CO[C@]1(NC(=O)[C@H](C(=O)O)c2ccc(O)cc2)C(=O)N2C(C(=O)O)=C(CSc3nnnn3C)CO[C@H]21	Glucocorticoid receptor (Homo sapiens)	> 20.6 µM (inactive)
Cc1noc(C)c1-c1nc(Nc2ccncc2)c2ccccc2n1	Glucocorticoid receptor (Homo sapiens)	> 46 µM (inactive)
c1ccc2c3c([nH]c2c1)[C@@H]1[C@H]2CC[C@H]([C@H]4CCCN[C@H]42)N1CC3	Glucocorticoid receptor (Homo sapiens)	> 20.6 µM (inactive)

---

- System: PC26
- ASSAY EXPLANATION: qHTS profiling for inhibitors of Plasmodium falciparum proliferation (AID 504749); further: nearly all actives have a fitted effect of over 60% in size
- CONDITION DETAILS: P. falciparum in erythrocytes, SYBR Green DNA, 72 h; series mostly up to 12.8 µM
Inconclusive results are not listed. The source made the active and inactive calls. Calls follow the shape of the dose curve; as a rule, active = well fitted inhibition curve with a large enough effect; inconclusive = small, poorly fitted or top-dose-only effect; inactive = flat fitted curve, though single readings scatter.
Outcome codes: active, inactive

COMPOUND	STUDY SYSTEM	DISCRETE LABEL
CC1=C(C(=O)O)N2C(=O)[C@@H](NC(=O)[C@@H](N)c3ccc(O)cc3)[C@@H]2SC1	PC26	inactive
NS(=O)(=O)c1cc2c(cc1Cl)N[C@@H](CC1CCCC1)NS2(=O)=O	PC26	inactive
CCCCC[C@H](O)/C=C\[C@@H]1[C@H](O)CC(=O)[C@@H]1CCCCCCC(=O)O	PC26	inactive
NC(=O)N[C@H]1NC(=O)NC1=O	PC26	inactive
C/C1=C2N=C(/C=C3N=C(/C(C)=C4\[N-]C(C)(C5N=C1C(C)(CCC(=O)NCC(C)OP(=O)([O-])O[C@H]1C(O)C(n6cnc7cc(C)c(C)cc76)O[C@@H]1CO)C5CC(N)=O)C(C)(CC(N)=O)C4CCC(N)=O)C(C)(CC(N)=O)C\3CCC(N)=O)C(C)(C)C/2CCC(N)=O.[CH2-]C1OC(n2cnc3c(N)ncnc32)C(O)C1O.[Co] (stereo partly drawn)	PC26	inactive
OCC1OC(n2cnc3c(=S)nc[nH]c32)C(O)C1O (stereo not drawn)	PC26	inactive
NC(CCC(=O)N[C@@H](CS)C(=O)NCC(=O)O)C(=O)O (stereo partly drawn)	PC26	active
C[C@]1(c2ccccc2)OC(C(=O)O)=CC1=O	PC26	inactive

---

- ASSAY EXPLANATION: qHTS Assay for Lipid Storage Modulators (AID 1519)
- CONDITION DETAILS: Drosophila S3 cells, BODIPY lipid droplet/cell ratio, laser cytometry; measured here: lipid channel max response; cells loaded with oleic acid
Results filed as inconclusive are left out.
PARAMETER MEASURED: max response (%)

COMPOUND	RECORDED NUMBER
C[C@@H]1C(=O)O[C@@H]2C[C@]34[C@H]5C[C@@H](C(C)(C)C)[C@@]36[C@@H](OC(=O)[C@@H]6O)O[C@@]4(C(=O)O5)[C@@]12O	-6.41
CC(CCC(=O)O)C1CCC2C3CC[C@H]4CC(O)CC[C@@]4(C)C3C=C[C@]12C (some centres undefined)	18.3
CC1CC2C3CCC4=CC(=O)C=C[C@]4(C)[C@@]3(Cl)C(O)C[C@]2(C)C1(OC(=O)c1ccco1)C(=O)CCl (some centres undefined)	6.32
Oc1cc(O)c2c(c1)OC(c1cc(O)c(O)c(O)c1)C(O)C2 (centres undefined)	24.8
O=C1OC(CO)C(O)C(O)C1O (centres undefined)	26.8
CC(=O)OCC(=O)C1CCC2C3CCC4=CC(=O)CC[C@@]4(C)C3CC[C@]12C (some centres undefined)	13.2
CC(=O)O[C@@]1(C(C)=O)CCC2C3CC(C)C4=CC(=O)CC[C@@]4(C)C3CC[C@]21C (some centres undefined)	-5.62
C[C@H](CCC(=O)O)[C@H]1CC[C@@H]2[C@H]3[C@@H](CC[C@@]21C)[C@]1(C)CC[C@H](O)C[C@@H]1C[C@@H]3O	-4.97
CN[C@]1(C)[C@H]2CC[C@@H](C2)C1(C)C	-14.5

Value source: PubChem BioAssay (NCATS)
